Data origin, for the record: ChEMBL document CHEMBL5724914

Assay: The drug is tested on WLS-220 corresponding to human gut metagenome with ENA study accession number: PRJEB37062 and ENA sample accession number: ERS12561769 for biotransformation under anaerobic condition. The drug concentrations were measured over 9 timepoints collected between 0 and 24 hours of incubation by liquid-chromatography-coupled mass spectrometry (LC–MS); note: call rule not given here
Conditions: 2 µM
PROPERTY MEASURED: Bacterial Biotransformation

Use these answered entries as a reference point.
• CN1CCN(C(=O)O[C@H]2c3nccnc3C(=O)N2c2ccc(Cl)cn2)CC1 = Compound NOT metabolized
• O=C1NCC2(CCN(CCc3ccccc3)CC2)O1 [FENSPIRIDE] = Compound NOT metabolized
• CNCCC(Oc1ccc(C(F)(F)F)cc1)c1ccccc1 (stereo not drawn) = Compound NOT metabolized
• CC(C)(C#N)c1cc(Cn2cncn2)cc(C(C)(C)C#N)c1 = Compound metabolized
• CNC(=C[N+](=O)[O-])NCCSCc1csc(CN(C)C)n1 = Compound NOT metabolized

Recorded result, COc1ccc2c(c1OC)C(=O)O[C@@H]2[C@H]1c2c(cc3c(c2OC)OCO3)CCN1C , Bacterial Biotransformation: Compound metabolized

Recorded result, CCCCc1nc(Cl)c(CO)n1Cc1ccc(-c2ccccc2-c2nn[nH]n2)cc1 , Bacterial Biotransformation: Compound metabolized

Recorded result, CN(C)CCC=C1c2ccccc2C=Cc2ccccc21 , Bacterial Biotransformation: Compound metabolized

###

Assay: The drug is tested on WLS-350 corresponding to human gut metagenome with ENA study accession number: PRJEB37062 and ENA sample accession number: ERS12561789 for biotransformation under anaerobic condition. The drug concentrations were measured over 9 timepoints collected between 0 and 24 hours of incubation by liquid-chromatography-coupled mass spectrometry (LC–MS)
Conditions: 2 µM
PROPERTY MEASURED: Bacterial Biotransformation

Use these answered entries as a reference point.
- CCCCC(=O)N(Cc1ccc(-c2ccccc2-c2nnn[nH]2)cc1)[C@H](C(=O)O)C(C)C: Compound metabolized
- C[C@@H](CO)NC(=O)[C@@H]1C=C2c3cccc4[nH]cc(c34)C[C@H]2N(C)C1.O=C(O)/C=C\C(=O)O [ERGONOVINE MALEATE]: Compound metabolized
- Clc1ccc(Cn2c(CN3CCCC3)nc3ccccc32)cc1 [CLEMIZOLE]: Compound metabolized
- CC[C@@H](CO)NC(=O)[C@@H]1C=C2c3cccc4c3c(cn4C)C[C@H]2N(C)C1.O=C(O)/C=C\C(=O)O [METHYSERGIDE MALEATE]: Compound NOT metabolized
- CNCCC(Oc1ccc(C(F)(F)F)cc1)c1ccccc1 (centres undefined) [FLUOXETINE]: Compound NOT metabolized

Consider the additional compound presented here.
Recorded result, C=CCc1ccccc1OCC(O)CNC(C)C (centres undefined) [ALPRENOLOL] , Bacterial Biotransformation: Compound NOT metabolized

###

Conditions: human gut metagenome, 24 h, 2 µM
PROPERTY MEASURED: Bacterial Biotransformation

Use these answered entries as a reference point.
• CC(=O)OCC(=O)[C@@]12N=C(C)O[C@@H]1C[C@H]1[C@@H]3CCC4=CC(=O)C=C[C@]4(C)[C@H]3[C@@H](O)C[C@@]12C = Compound metabolized
• CC(Oc1c(Cl)cccc1Cl)C1=NCCN1 (centres undefined) = Compound NOT metabolized
• OCCOCCN1CCN(C2=Nc3ccccc3Sc3ccccc32)CC1 = Compound NOT metabolized
• CNCCC(Oc1ccc(C(F)(F)F)cc1)c1ccccc1 (centres undefined) = Compound NOT metabolized
• Nc1ccc(/N=N/c2ccccc2)c(N)n1 = Compound metabolized
• CCc1nn(CCCN2CCN(c3cccc(Cl)c3)CC2)c(=O)n1CCOc1ccccc1 = Compound NOT metabolized
• Nc1nc2ccc(OC(F)(F)F)cc2s1 = Compound NOT metabolized
• CNS(=O)(=O)Cc1ccc2[nH]cc(CCN(C)C)c2c1.O=C(O)CCC(=O)O [SUMATRIPTAN SUCCINATE] = Compound NOT metabolized

Recorded result, OC(CCN1CCCCC1)(c1ccccc1)C1CCCCC1 (centres undefined) , Bacterial Biotransformation: Compound NOT metabolized
